Values were extracted from PubChem BioAssay AID328.

Items are presented alongside their recorded T/C.
Tested on: BDF1 mice, P388 leukemia ip, median survival T/C
Assay: NCI In Vivo Anticancer Drug Screen. Data for tumor model P388 Leukemia (intraperitoneal) in B6D2F1 (BDF1) mice
Conditions: endpoint: median survival time; dose: 25.0 mg/kg/injection; schedule: Q01DX009 (ip); vehicle: saline; higher = longer survival
Inconclusive results and toxic doses are left out.
quantity.name: T/C

[[record]]
compound = "CC(=O)Oc1ccc(OC(C)=O)c2c1CC1(C)OC1(C)C2 (stereo unspecified)"
assay_target = "BDF1 mice, P388 leukemia ip, median survival T/C"
reported_result = "88 % of control"

[[record]]
compound = "NN(c1cccc(C(F)(F)F)c1)c1ccccn1"
assay_target = "BDF1 mice, P388 leukemia ip, median survival T/C"
reported_result = "106 % of control"

[[record]]
compound = "FC(F)(F)c1ccc2c(c1)N(CCCN1CCN(CCN3CCCCC3)CC1)c1ccccc1S2"
assay_target = "BDF1 mice, P388 leukemia ip, median survival T/C"
reported_result = "115 % of control"

[[record]]
compound = "O[C@]12CC=CC[C@]1(O)CC(N1CCCCC1)C2"
assay_target = "BDF1 mice, P388 leukemia ip, median survival T/C"
reported_result = "99 % of control"

[[record]]
compound = "CC(C)(C)C1=C[P+](c2ccccc2)(c2ccccc2)C(C(C)(C)C)=C[P+]1(c1ccccc1)c1ccccc1"
assay_target = "BDF1 mice, P388 leukemia ip, median survival T/C"
reported_result = "107 % of control"

[[record]]
compound = "C=C1C(=O)OC(C)(C)C1(C)C"
assay_target = "BDF1 mice, P388 leukemia ip, median survival T/C"
reported_result = "98 % of control"


###

Test system: BDF1 mice, P388 leukemia ip, median survival T/C
Test: NCI In Vivo Anticancer Drug Screen. Data for tumor model P388 Leukemia (intraperitoneal) in B6D2F1 (BDF1) mice
Details: endpoint: median survival time; dose: 50.0 mg/kg/injection; schedule: Q04DX003 (ip); vehicle: saline
Description: The antitumor activity of compounds was measured in mice bearing transplantable tumors. Survival or tumor size were measured and the results are expressed as the measurement made in the treated group (T) divided by the measurement made in the vehicle treated control group (C). The tumor model used in this assay is P388 Leukemia (intraperitoneal) in B6D2F1 (BDF1) mice
Inconclusive results and toxic doses are left out. The calls were made as follows: active = survival T/C of 150% or more; inactive = T/C below 125% in these data.
Outcomes: 1.0 for active, 0.0 for inactive

[[record]]
compound = "CC(C)(C)C1=C[P+](c2ccccc2)(c2ccccc2)C(C(C)(C)C)=C[P+]1(c1ccccc1)c1ccccc1"
class_label = 0.0

[[record]]
compound = "CCCCN(C)c1ncnc2[nH]ncc12"
class_label = 0.0

[[record]]
compound = "CCOC(=O)C1(C)CCCC1=O (stereo unspecified)"
class_label = 0.0

[[record]]
compound = "COc1ccc2[nH]c(=O)c(C)c(C)c2c1"
class_label = 0.0

[[record]]
compound = "COc1ccc(Cc2nccc3c(OC)c(OC)ccc23)cc1OC"
class_label = 0.0

[[record]]
compound = "COc1ccc2c(Nc3ccc(NS(C)(=O)=O)cc3)c3ccccc3nc2c1"
class_label = 1.0


###

Test system: BDF1 mice, P388 leukemia ip, median survival T/C
Test: NCI In Vivo Anticancer Drug Screen. Data for tumor model P388 Leukemia (intraperitoneal) in B6D2F1 (BDF1) mice
Conditions: endpoint: median survival time; dose: 400.0 mg/kg/injection; schedule: Q04DX003 (ip); vehicle: water; higher = longer survival
Inconclusive results and toxic doses are left out.
quantity.name: T/C

[[record]]
molecule = "CC1CCC2(C)CCC3(C)C(=CCC4C5(C)CCC(O)C(C)(C)C5CCC43C)C2C1C (stereo unspecified)"
reported_result = "90 % of control"

[[record]]
molecule = "O=C1c2ccccc2C(=O)N1c1cc(OCc2ccccc2)cc(OCc2ccccc2)c1"
reported_result = "99 % of control"

[[record]]
molecule = "COc1cccc(CCC(=O)O)c1OC"
reported_result = "94 % of control"

[[record]]
molecule = "C[n+]1c(-c2cc(Cl)cc(Cl)c2)c2cc([N+](=O)[O-])ccc2c2ccccc21"
reported_result = "110 % of control"

[[record]]
molecule = "Clc1ccc(-c2cc(=[N+]3CCC4(CC3)SSC3(CC[N+](=c5cc(-c6ccc(Cl)cc6)ss5)CC3)S4)ss2)cc1 (stereo unspecified)"
reported_result = "98 % of control"

[[record]]
molecule = "CCCCN(CCCC)C(=O)C1C=C2c3cccc4[nH]cc(c34)CC2N(C)C1 (stereo unspecified)"
reported_result = "97 % of control"


###

// values below are reported T/C
Tested on: BDF1 mice, P388 leukemia ip, median survival T/C
Assay: NCI In Vivo Anticancer Drug Screen. Data for tumor model P388 Leukemia (intraperitoneal) in B6D2F1 (BDF1) mice
Conditions: endpoint: median survival time; dose: 400.0 mg/kg/injection; schedule: Q04DX003 (ip); vehicle: saline with Tween-80; higher = longer survival
Inconclusive results and toxic doses are left out.
quantity.name: T/C

[[record]]
molecule = "COc1ccc(C2(C#N)CC2)cc1"
reported_result = "108 % of control"

[[record]]
molecule = "CC(C)=CCC/C(C)=C/CN1C(=O)CC(C)=C(C)C1=O"
reported_result = "104 % of control"

[[record]]
molecule = "CCOc1ccccc1CC(=O)O"
reported_result = "104 % of control"

[[record]]
molecule = "Cc1nc([N+](=O)[O-])cn1CC/C(N)=N/O"
reported_result = "115 % of control"

[[record]]
molecule = "C=C(C)C1CC=C(/C=N/O)CC1 (configuration not stated)"
reported_result = "95 % of control"

[[record]]
molecule = "CCC(C(=O)OC)C1CCCCC1 (configuration not stated)"
reported_result = "104 % of control"

[[record]]
molecule = "Cc1ccc(NC(=O)Nc2ccccc2C(F)(F)F)cc1NC(=O)Nc1ccccc1C(F)(F)F"
reported_result = "104 % of control"

[[record]]
molecule = "O=c1[nH]cnc2c(Cl)c(C(Cl)(Cl)Cl)nn12 (tested in a mixture with another compound)"
reported_result = "102 % of control"

[[record]]
molecule = "CCOC(=O)c1ccc(OC(=O)Nc2ccccc2OC)cc1"
reported_result = "108 % of control"

[[record]]
molecule = "Cc1c(Cl)cccc1NC(=O)Nc1cccc2ccccc12"
reported_result = "108 % of control"

[[record]]
molecule = "CC(=O)N/N=C(/C)C(O)(c1ccccc1)c1ccccc1"
reported_result = "87 % of control"

[[record]]
molecule = "O=C(O)C(Cc1ccccc1)N=Cc1c(O)ccc2ccccc12 (configuration not stated)"
reported_result = "89 % of control"


###

System: BDF1 mice, P388 leukemia ip, median survival T/C
Assay: NCI In Vivo Anticancer Drug Screen. Data for tumor model P388 Leukemia (intraperitoneal) in B6D2F1 (BDF1) mice
Settings: endpoint: median survival time; dose: 75.0 mg/kg/injection; schedule: Q01DX009 (ip); vehicle: saline with Tween-80; higher = longer survival
Toxic doses and inconclusive results are not listed.
quantity.name: T/C

[[record]]
compound = "S=C(c1ccco1)N1CCOCC1"
reported_result = "104 % of control"

[[record]]
compound = "CC(C)=CCC/C(C)=C\\CCl"
reported_result = "122 % of control"

[[record]]
compound = "O=C(O)c1cc(Cl)c(C(=O)O)cc1Cl"
reported_result = "116 % of control"

[[record]]
compound = "O=C(O)C(/C=N\\Nc1ccccc1)=N\\Nc1ccccc1"
reported_result = "115 % of control"

[[record]]
compound = "O=C(NCCc1ccccc1)Nc1ccccc1"
reported_result = "95 % of control"

[[record]]
compound = "O=C1NC(=O)C(Cc2ccccc2)(c2ccccc2)N1 (stereo not drawn)"
reported_result = "97 % of control"

[[record]]
compound = "CCOC(=O)CCC[P+](c1ccccc1)(c1ccccc1)c1ccccc1"
reported_result = "152 % of control"

[[record]]
compound = "FC(F)c1nc2nc(Cl)c(Cl)nc2[nH]1"
reported_result = "103 % of control"


###

Entries and their T/C values follow.
Tested on: BDF1 mice, P388 leukemia ip, median survival T/C
Assay: NCI In Vivo Anticancer Drug Screen. Data for tumor model P388 Leukemia (intraperitoneal) in B6D2F1 (BDF1) mice
Settings: endpoint: median survival time; dose: 400.0 mg/kg/injection; schedule: Q01DX001 (ip); vehicle: Klucel (hydroxypropylcellulose) (HPC); higher = longer survival
Inconclusive results and toxic doses are left out.
quantity.name: T/C

[[record]]
compound = "Nc1ccccc1SC1CC(=O)N(c2ccccc2)C1=O (configuration not stated)"
reported_result = "95 % of control"

[[record]]
compound = "COc1ccc2nc(NCN3C(=O)c4ccccc4C3=O)sc2c1"
reported_result = "95 % of control"

[[record]]
compound = "CCCCCCCCCCCCOc1ccc(C=O)cc1OC"
reported_result = "100 % of control"

[[record]]
compound = "CC(=O)c1c(C)[nH]c(C(=O)OC(C)(C)C)c1C"
reported_result = "109 % of control"

[[record]]
compound = "CC(=O)C(=O)C(C)=O"
reported_result = "105 % of control"

[[record]]
compound = "COc1cc(O)c2c(c1)C1=C(C)C(C)(O)OC1=CC2=O (configuration not stated)"
reported_result = "86 % of control"

[[record]]
compound = "CN(C)C(=O)c1cccc(COc2ccc([N+](=O)[O-])cc2Cl)c1"
reported_result = "104 % of control"

